Each recorded value in this set is attributed to ChEMBL document CHEMBL1201862.

Test system: Replicative DNA helicase DnaB (Mycobacterium tuberculosis)
Sequence (P9WMR3 1-399, added parts left off): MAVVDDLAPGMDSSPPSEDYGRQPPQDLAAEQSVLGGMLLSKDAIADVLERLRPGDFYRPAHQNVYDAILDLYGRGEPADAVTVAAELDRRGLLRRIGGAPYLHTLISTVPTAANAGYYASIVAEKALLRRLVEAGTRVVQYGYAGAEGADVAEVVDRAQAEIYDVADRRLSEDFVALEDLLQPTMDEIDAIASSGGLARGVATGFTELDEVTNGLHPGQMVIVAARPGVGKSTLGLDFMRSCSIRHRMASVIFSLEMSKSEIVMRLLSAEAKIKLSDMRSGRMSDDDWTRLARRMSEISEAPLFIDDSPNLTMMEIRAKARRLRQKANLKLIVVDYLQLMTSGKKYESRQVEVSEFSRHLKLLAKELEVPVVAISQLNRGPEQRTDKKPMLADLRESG
Assay protocol: DnaB intein splicing inhibitors, dose response, biochemical, cell-free fluorescence (AID 449749)
Format: functional
Calls of active or inactive are those of the source. No stated cut-off is given here; in the data, actives have a measured AC50 and inactives only a lower limit.
A correct response names exactly one class from active, inactive

Here's what some known entries look like.
Dear all, I need the recorded test outcome for O=C(CNC1=NCCC1)c1ccc(Cl)cc1 , thank you. active

Dear all, I need the recorded test outcome for Cc1ccc(C)c(Sc2ccc(NC(=O)CCl)cc2)c1 , thank you. active

Dear all, I need the recorded test outcome for Cc1[nH]n(C)c(=O)c1C(=O)c1c(-c2c(Cl)cccc2Cl)noc1C , thank you. active

Dear all, I need the recorded test outcome for Fc1ccc(Sc2nc(-c3ccccc3)nnc2C(F)(F)F)cc1 , thank you. active

Dear all, I need the recorded test outcome for Oc1ccc(/C=N/Nc2ccc(C(F)(F)F)cn2)c(O)c1 , thank you. active

---
Dear all, I need the recorded test outcome for COc1nc(NC(C)C)nc(N(C#N)CN2C(=O)c3ccccc3S2(=O)=O)n1 , thank you. active

Dear all, I need the recorded test outcome for Cc1ccc(C(c2c(C)n[nH]c2O)c2c(C)n[nH]c2O)cc1[N+](=O)[O-] , thank you. active

Dear all, I need the recorded test outcome for COc1ccccc1/C=C/C1(C(=O)NC2CCCC2)CC(=O)N1c1ccc(C)cc1 (stereo unspecified) , thank you. active

Dear all, I need the recorded test outcome for COc1ccc(C(=O)Nc2ccncc2)cc1[N+](=O)[O-] , thank you. inactive

Dear all, I need the recorded test outcome for CCc1n[nH]c2c1C(c1ccsc1)C(C#N)=C(N)O2 (stereo unspecified) , thank you. active

Dear all, I need the recorded test outcome for Cc1oc2c(c1C(=O)N1CCC(C)CC1)C(=O)c1ccccc1C2=O , thank you. active

Dear all, I need the recorded test outcome for N=C1/C(=C\c2ccc(OC(=O)c3ccc(F)cc3)cc2)C(=O)N=C2SC(N3CCOCC3)=NN12 , thank you. active

Dear all, I need the recorded test outcome for N#Cc1cc(-c2ccccc2)nc(Oc2ccccc2)n1 , thank you. active

Dear all, I need the recorded test outcome for CCOC(=O)CCS(=O)(=O)c1nc(-c2ccccc2)cc(C(F)(F)F)n1 , thank you. active
